Documented pEC50 across a set of compounds
molecular target: C-X-C chemokine receptor type 4 (Homo sapiens); test: Antagonist activity against human CXCR4 expressed in COS7 cells assessed as inhibition of CXCL12-induced myo-[3H]inositol production by scintillation counting
Kindly note that pEC50 refers to -log10 of the concentration in mol/L and answer with the value alone.

Ask: Requested read-out: pEC50. Entry: N=C(N)NCCC[C@@H]1NC(=O)[C@H](Cc2ccccc2)NC(=O)[C@@H](Cc2ccc(O)cc2)NC(=O)CNC(=O)[C@H](Cc2ccc3ccccc3c2)NC1=O
Reply: 5.14

Ask: Requested read-out: pEC50. Entry: N=C(N)NCCC[C@@H]1NC(=O)[C@H](Cc2ccc(N)cc2)NC(=O)[C@@H](Cc2ccc(O)cc2)NC(=O)CNC(=O)[C@H](Cc2ccc3ccccc3c2)NC1=O
Reply: 4.82

Ask: Requested read-out: pEC50. Entry: N=C(N)NCCC[C@@H]1NC(=O)C2(CCN(C(=N)N)CC2)NC(=O)[C@@H](Cc2ccc(O)cc2)NC(=O)CNC(=O)[C@H](Cc2ccc3ccccc3c2)NC1=O
Reply: 6.59

Ask: Requested read-out: pEC50. Entry: N=C(N)NCCC[C@@H]1NC(=O)CNC(=O)[C@@H](Cc2ccc(O)cc2)NC(=O)CNC(=O)[C@H](Cc2ccc3ccccc3c2)NC1=O
Reply: 4.44

Ask: Requested read-out: pEC50. Entry: CC1(C)NC(=O)[C@@H](Cc2ccc(O)cc2)NC(=O)CNC(=O)[C@H](Cc2ccc3ccccc3c2)NC(=O)[C@H](CCCNC(=N)N)NC1=O
Reply: 5.44

###

molecular target: C-X-C chemokine receptor type 4 (Homo sapiens, UniProt P61073); test: Antagonist activity against human CXCR4 expressed in COS7 cells assessed as inhibition of CXCL12-induced myo-[3H]inositol production by scintillation counting
Sequence (P61073 whole entry): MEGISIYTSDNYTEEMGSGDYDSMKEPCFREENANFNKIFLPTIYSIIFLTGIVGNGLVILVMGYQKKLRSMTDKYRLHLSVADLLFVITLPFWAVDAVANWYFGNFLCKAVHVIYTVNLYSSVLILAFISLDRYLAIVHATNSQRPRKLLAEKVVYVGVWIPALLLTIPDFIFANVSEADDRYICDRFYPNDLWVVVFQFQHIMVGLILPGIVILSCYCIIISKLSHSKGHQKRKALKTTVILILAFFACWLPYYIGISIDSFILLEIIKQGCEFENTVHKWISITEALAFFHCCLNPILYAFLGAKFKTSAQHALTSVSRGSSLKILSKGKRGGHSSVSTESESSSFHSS
Documented EC50 across a set of compounds

Ask: Requested read-out: EC50. Entry: N=C(N)NCCC[C@@H]1NC(=O)C2(CCNCC2)NC(=O)[C@@H](Cc2ccc(O)cc2)NC(=O)CNC(=O)[C@H](Cc2ccc3ccccc3c2)NC1=O
Reply: 560 nM

Ask: Requested read-out: EC50. Entry: N=C(N)NCCC[C@@H]1NC(=O)[C@@H](Cc2ccc(O)cc2)NC(=O)CNC(=O)[C@H](Cc2ccc3ccccc3c2)NC(=O)[C@H](CCCNC(N)=O)NC1=O
Reply: > 100000 nM

Ask: Requested read-out: EC50. Entry: N=C(N)NCCC[C@@H]1NC(=O)[C@H](Cc2ccc(NC(=N)N)cc2)NC(=O)[C@@H](Cc2ccc(O)cc2)NC(=O)CNC(=O)[C@H](Cc2ccc3ccccc3c2)NC1=O
Reply: 680 nM

Ask: Requested read-out: EC50. Entry: N=C(N)NCCC[C@@H]1NC(=O)[C@H](CCCNC(N)=O)NC(=O)[C@@H](Cc2ccc(O)cc2)NC(=O)CNC(=O)[C@H](Cc2ccc3ccccc3c2)NC1=O
Reply: 2900 nM

Let us examine a further case.
Ask: Requested read-out: EC50. Entry: N=C(N)NCCC[C@@H]1NC(=O)C2(CCCCC2)NC(=O)[C@@H](Cc2ccc(O)cc2)NC(=O)CNC(=O)[C@H](Cc2ccc3ccccc3c2)NC1=O
Reply: 5400 nM
